Target: HLA-DR DRB1*0701 (DR7) (Homo sapiens, UniProt P01903+P01911, A100R/A102G/A103Q/D57E/D86V/E43K/F76Y/K127E/L162R/M171V/P40G/Q125H/Q99D/R33Q/R42Y/R54Q/S133A/S66F/T210M/V115G/Y107V/Y59L/Y89S)
Assay: biochemical
Type: binding
Settings: DRB1 *0701
measured-quantity: IC50 (µM)
Field format: number, assumed µM, no unit text.

>>> result_number("CC(C)C[C@H](NC(=O)[C@H](C)NC(=O)[C@H](Cc1ccccc1)NC(=O)[C@@H](N)[C@@H](C)O)C(=O)N[C@@H](Cc1c[nH]c2ccccc12)C(=O)N[C@@H](CCCNC(=N)N)C(=O)N[C@H](C(=O)N[C@@H](CO)C(=O)N[C@@H](C)C(=O)N[C@@H](CCC(=O)O)C(=O)N[C@@H](CCC(=O)O)C(=O)N[C@@H](Cc1ccc(O)cc1)C(=O)O)C(C)C")
0.927

--- query ---
Respond only with IC50 recorded for CC[C@H](C)[C@H](NC(=O)[C@H](CCCNC(=N)N)NC(=O)[C@@H](N)[C@@H](C)O)C(=O)N[C@@H](Cc1ccc(O)cc1)C(=O)N[C@@H](CC(N)=O)C(=O)N[C@H](C(=O)N[C@H](C(=O)NCC(=O)N[C@H](C(=O)N[C@@H](CC(C)C)C(=O)N[C@@H](CCCNC(=N)N)C(=O)NCC(=O)N[C@@H](C)C(=O)N[C@H](C(=O)N[C@@H](CCC(=O)O)C(=O)O)C(C)C)[C@@H](C)O)[C@@H](C)CC)C(C)C
4.81

----------
Biological target: HLA-DR DRB5*0101 (DR51) (Homo sapiens, UniProt P01903+Q30154)
Assay: biochemical
Assay type: binding
Conditions: DRB5 *0101
Reported values of IC50 for individual entries
Field format: number, assumed µM, no unit text.

>>> result_number("CC(C)C[C@H](NC(=O)CNC(=O)[C@H](CC(N)=O)NC(=O)[C@H](Cc1ccc(O)cc1)NC(=O)[C@@H](NC(=O)[C@H](CC(=O)O)NC(=O)[C@H](CC(C)C)NC(=O)[C@H](C)N)C(C)C)C(=O)N[C@@H](CC(C)C)C(=O)N1CCC[C@H]1C(=O)N1CCC[C@H]1C(=O)N[C@@H](Cc1ccc(O)cc1)C(=O)N[C@@H](C)C(=O)N[C@@H](CO)C(=O)N[C@@H](CS)C(=O)O")
115

--- query ---
Respond only with IC50 recorded for CC(C)C[C@H](NC(=O)[C@@H](NC(=O)[C@H](CCC(=O)O)NC(=O)[C@H](C)NC(=O)[C@H](C)NC(=O)[C@H](C)NC(=O)[C@H](CCC(N)=O)NC(=O)[C@@H](NC(=O)[C@@H](NC(=O)[C@H](Cc1ccccc1)NC(=O)[C@H](C)NC(=O)[C@H](C)NC(=O)[C@@H](N)C(C)C)[C@@H](C)O)C(C)C)[C@@H](C)O)C(=O)N[C@@H](CO)C(=O)N[C@@H](CCC(=O)O)C(=O)O
0.378

----------
Target: HLA-DR DRB1*1101 (DR11) (Homo sapiens, UniProt P01903+P01911, A100R/A169T/A87E/I96F/K41T/L162R/M171V/P40S/Q125H/Q178H/Q39Y/Q99D/R42S/S66Y/T262R/V115G/W38E)
Sequence (P01903 26-254 limits assumed, other chains not shown): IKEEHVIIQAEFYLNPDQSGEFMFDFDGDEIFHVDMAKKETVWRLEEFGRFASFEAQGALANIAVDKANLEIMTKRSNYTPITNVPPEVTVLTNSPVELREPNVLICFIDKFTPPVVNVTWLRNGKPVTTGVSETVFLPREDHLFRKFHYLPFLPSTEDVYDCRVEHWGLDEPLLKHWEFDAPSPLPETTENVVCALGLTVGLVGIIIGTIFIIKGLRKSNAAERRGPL
Assay: biochemical
Assay type: binding
Settings: DRB1 *1101
No end group written: not given here.
measured-quantity: IC50

Recorded results for 4 substances are shown here.
>>> result("HPQWVLTAAHCLKKN")
"0.981 µM"
>>> result("RSSNCQSQKLLWQLN")
"> 60.6 µM"
>>> result("TCVLGKLSQELHKLQ")
"1.4 µM"
>>> result("PHPLYNMSLLKHQSL")
"6.46 µM"

Respond only with IC50 recorded for RETLQEIVLHLEPQN
7.9 µM

Respond only with IC50 recorded for GRAVCGGVLVHPQWV
> 50 µM

Respond only with IC50 recorded for LSGLHGQDLFGIWSK
30.2 µM

Respond only with IC50 recorded for WKRMEVGQQAVEVWQ
0.512 µM

Respond only with IC50 recorded for QDYVLDLQPEATDLH
> 11.9 µM

Respond only with IC50 recorded for NGVLQGITSWGSEPC
9.72 µM

Respond only with IC50 recorded for VEALYLVTGERGFFY
4.86 µM

Respond only with IC50 recorded for NMSLLKHQSLRPDED [NMSLLKHQSLRPDED]
25.8 µM

Respond only with IC50 recorded for QDVVLELTPQTEIDL
> 31.6 µM

Respond only with IC50 recorded for TIVYRDDTPHGVCTK
> 18 µM

Respond only with IC50 recorded for AYVLLSEKKISSIQS
0.051 µM

Respond only with IC50 recorded for KATLQDIVLHLEPQN
25.9 µM

Respond only with IC50 recorded for ISLLLIQSWLEPVQF
2.68 µM

Respond only with IC50 recorded for PRWLCAGALVLAGGF
> 40 µM

Respond only with IC50 recorded for KLSQELHKLQTYPRT
2.38 µM

Respond only with IC50 recorded for APPRLITDSRVLERY
2.75 µM

Respond only with IC50 recorded for DKAVSGLRSLTTLLR
0.052 µM
